- Measured on: T1, human IL-11Rα, FLAG-tagged, expressed at the surface of transiently transfected cells (human, UniProt Q14626 23-422)
- T1 construct: whole, on cells; also called IL-11Rα expressing HEK cells; FLAG-tagged human IL-11Rα; not shown: tag
- T1 sequence (looked up): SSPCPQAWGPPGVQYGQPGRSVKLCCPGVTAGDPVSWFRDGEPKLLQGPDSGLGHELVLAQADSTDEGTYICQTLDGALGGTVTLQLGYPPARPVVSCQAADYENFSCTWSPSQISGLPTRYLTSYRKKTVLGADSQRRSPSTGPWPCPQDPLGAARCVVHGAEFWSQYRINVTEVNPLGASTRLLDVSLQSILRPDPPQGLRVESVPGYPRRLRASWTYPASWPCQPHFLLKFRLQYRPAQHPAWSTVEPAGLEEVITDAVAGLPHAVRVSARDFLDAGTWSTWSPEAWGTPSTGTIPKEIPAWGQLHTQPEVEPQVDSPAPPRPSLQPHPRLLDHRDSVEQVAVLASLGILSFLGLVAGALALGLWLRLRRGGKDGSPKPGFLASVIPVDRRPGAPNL
- Procedure text: same assay; percent relative to the positive control anti-FLAG antibody (100%)
- Source text: Briefly, labelled control cells (not expressing IL-11Rα at the cell surface) and unlabelled target cells expressing human IL-11Rα at their surface (following transient transfection with a plasmid encoding a FLAG-tagged human IL-11Rα) were mixed together with the cell culture supernatant (containing mouse-anti-IL-11Rα antibodies) and secondary detection antibodies (fluorescently-labelled anti-mouse IgG antibody). […]
Reported metric: % positive (%)
Number only, in %; omit the unit.

A selection of reference data follows.
| Binder | Reading unit | Val |
| --- | --- | --- |
| BSO-2E5 (antibody, V domains shown, Mouse monoclonal from hybridoma; also called RA3) VH: QGQVQQSGAELVKPGASVKLSCKTSGFTFSTSYISWLKQKPRQSLEWIAWIYAGTGSTSYNQKFTGKAQLTVDTSSSTAYMQLSSLTSEDSAIYYCARHWAYWGQGTLVTVSA VL: DIQMTQSPSSLSASLGERVSLTCRASQDIGSSLNWLQQEPDGTIKRLIYATASLESGVPKRFSGSRSGSDYSLTISRLESEDFVDYYCQQYASSPPTFGAGTKLELK | % | 30 |
| BSO-4G3 (antibody, V domains shown, Mouse monoclonal from hybridoma) VH: EVQLVESGGGLVKPGGSLKLSCAASGFTFSTYAMSWVRQTPEKRLEWVAAIKSNGGSTYYPDTVKDRFTISRDNAKNTLYLQMSSLRPEDTALYYCAHGLLFAHWGQGTLVTVSA VL: DIVLTQSPASLAVSLGQSVTISCRASESVEYSGTTLMQWYQQKPGQPPKLLIYGASNVESGVPARFSGSGSGTDFSLNIHPVEEDDIAMYFCQQSRKVPYTFGSGTKLEIK | % | 30 |

Here is another binder to look at.
Hello, please tell me recorded % positive for this one: BSO-7G9 (antibody, V domains shown, Mouse monoclonal from hybridoma) VH: QVQLQQPGAELVKPGASVRLSCKASGYTFTSYWMHWVKQRPGQGLEWIGMIHPNSGYTNYNEKFKIKATLTVDKSSSTAHMQLSSLTSEDSAVYHCARGGYDGSYGPWFAYWGQGTLVTVSA VL: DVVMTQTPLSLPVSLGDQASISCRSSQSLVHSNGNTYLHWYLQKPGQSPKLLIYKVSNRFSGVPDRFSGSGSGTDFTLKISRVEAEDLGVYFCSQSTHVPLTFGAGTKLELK
59

Data origin: patent US20200207847A1
